- System: A549
- method: Tumor cell proliferation (MTS), A549
- Type: cell-based
- run parameters: Homo sapiens, 72 hours, complete medium
- Experimental: Measurement of In Vivo Cell Proliferation: Tumor cells were trypsinized and plated into 96-well plates at 3,000 per well and incubated in complete medium with 10% FBS for 24 hours. […] The effects on proliferation were determined by addition of MTS reagent (Promega) according to the instruction, incubation for 2 hours at 37° C. in CO2 incubator, and record the absorbance at 490 nm using an ELISA plate reader. […]
Measured GI50 by item
The reply should contain only the number, in µM.

Study these solved cases before continuing.
- item smiles: "COc1cc2nccc(Oc3ccc4c(C(=O)Nc5ccccc5N)cccc4c3)c2cc1OC"
  assay value: 7.7
- item smiles: "COc1ccc2c(Oc3ccc4c(C(=O)Nc5ccccc5N)cccc4c3)ccnc2c1"
  assay value: 17.3
- item smiles: "COc1cc2nccc(Oc3ccc4c(C(=O)NCc5ccc(C(=O)Nc6ccccc6N)cc5)cccc4c3)c2cc1OC"
  assay value: 30

Lab request: please report GI50 under test system A549 for `COc1cc2ncnc(Oc3ccc4c(C(=O)NCc5ccc(C(=O)Nc6ccccc6N)cn5)cccc4c3)c2cc1OC`
30

Find GI50 (A549) for the entry `COc1ccc2c(Oc3ccc4c(C(=O)NCc5ccc(C(=O)Nc6ccccc6N)cc5)cccc4c3)ccnc2c1`
2.1
